test: Oral LD50 in male mice; settings: mouse, in vivo, orally administered
assay-metric: LD50

The compound listed as CSCC1CCN(c2c(F)cc3c(=O)c(C(=O)O)cn(C4CC4)c3c2F)C1 (stereo not shown) [Example 2] has a reported LD50 of > 3000 mg/kg

###

tested on: P. aeruginosa 1771; assay: In vitro antibacterial activity, MIC by agar dilution method; assay type: cell-based; conditions: Pseudomonas aeruginosa, 1771, read-out: In vitro Antibacterial Activity, MIC
MIC values, listed per item
Form entry: value (µg/mL) — number only.

Check out these entries, answers already filled in.
CSCC1CCN(c2c(F)c(N)c3c(=O)c(C(=O)O)cn(C4CC4)c3c2F)C1 (stereo not shown) [Example 9]; 1.56
CSCC1CCN(c2c(F)c(F)c3c(=O)c(C(=O)O)cn(C4CC4)c3c2F)C1 (stereo not shown) [Example 3]; 1.56
O=C(O)c1cn(C2CC2)c2cc(N3CCNCC3)c(F)cc2c1=O [CIP, Ciprofloxacin, reference compound]; 0.195

Pending compound:
Form field MIC, entry CSCC1CCN(c2cc3c(cc2F)c(=O)c(C(=O)O)cn3C2CC2)C1 (stereo not shown) [Example 1] : 0.781

###

Test system: P. aeruginosa 1592E
Experiment: In vitro antibacterial activity, MIC by agar dilution method
Format: cell-based
Conditions: Pseudomonas aeruginosa, 1592E, read-out: In vitro Antibacterial Activity, MIC
Procedure: The typical examples of the present compounds were tested for antimicrobial activity in vitro against twenty strains of Gram-positive and Gram-negative microorganisms. The numerals in the table 1 show minimum inhibitory concentrations(MIC in µg/ml). The minimum inhibitory concentrations were determined according to the agar dilution method recommended by Japan Society of Chemotherapy[Chemotherapy., 29, 76 (1981)].
Reported MIC values are given for each entry in this list.
Numbers only here, please. The scale is µg/mL.

Worked examples follow.
CSCC1CCN(c2cc3c(cc2F)c(=O)c(C(=O)O)cn3C2CC2)C1 (stereo not shown); 1.56
CSCC1CCN(c2c(F)c(N)c3c(=O)c(C(=O)O)cn(C4CC4)c3c2F)C1 (stereo not shown); 3.12
CSCC1CCN(c2c(F)c(F)c3c(=O)c(C(=O)O)cn(C4CC4)c3c2F)C1 (stereo not shown); 3.12

Okay, next one:
The reported MIC of the molecule O=C(O)c1cn(C2CC2)c2cc(N3CCNCC3)c(F)cc2c1=O [CIP, Ciprofloxacin, reference compound] was 0.195

Where do the numbers come from? From patent EP0500835B1.
